assay: Unbound fraction in po dosed diet-induced obese F344/jcl rat plasma; type: ADME, organism-based
metricName: fraction unbound
Answer with a number only.

What does the data say about its fraction unbound? Entry: `Cc1c(C2CC2)nc2ccc(-n3ccc(OCc4ccc(Cl)cc4)cc3=O)cn12`
0.02

* * *

test: Drug uptake in diet-induced obese F344/jcl rat brain at 10 mg/kg, po administered on day 1 measured 24 hrs post dose; format: ADME, organism-based
metricName: concentration at 24 h (ng/g)
Record the value in ng/g, omitting the unit from your answer.

What does the data say about its concentration at 24 h? Entry: `Cc1c(C2CC2)nc2ccc(-n3ccc(OCc4ccc(Cl)cc4)cc3=O)cn12`
841

* * *

experiment: Ratio of drug level in brain to plasma in diet-induced obese F344/jcl rat at 10 mg/kg, po administered on day 1 measured 24 hrs post dose; type: ADME, organism-based; conditions: read-out: BPR
metricName: Kp at 24 h

What does the data say about its Kp at 24 h? Entry: `Cc1c(C2CC2)nc2ccc(-n3ccc(OCc4ccc(Cl)cc4)cc3=O)cn12`
0.62

* * *

biological target: Melanin-concentrating hormone receptor 1 (Homo sapiens); assay type: functional, cell-based, CHO
Description: Antagonist activity at human MCHR1 expressed in CHO cells assessed as inhibition of MCH (4 to 19 residues)-stimulated intracellular calcium mobilization after 24 hrs by fluorometric analysis
metricName: IC50 (µM)
Record the value in µM, omitting the unit from your answer.

// known answers, use as guide
{"chemicalSmiles": "Cc1c(C2CC2)nc2ccc(-n3ccc(OCc4csc(Cl)c4)cc3=O)cn12", "testedSystem": "Melanin-concentrating hormone receptor 1 (Homo sapiens)", "IC50 / µM": 0.019}
{"chemicalSmiles": "Cc1c(C2CC2)nc2ccc(-n3ccc4oc(-c5ccc(Cl)cc5)cc4c3=O)cn12", "testedSystem": "Melanin-concentrating hormone receptor 1 (Homo sapiens)", "IC50 / µM": 0.042}
{"chemicalSmiles": "Cc1c(C2CC2)nc2ccc(-n3ccc(OCc4ccc(Cl)cc4)cc3=O)cn12", "testedSystem": "Melanin-concentrating hormone receptor 1 (Homo sapiens)", "IC50 / µM": 0.023}

What value of IC50 on Melanin-concentrating hormone receptor 1 (Homo sapiens) does `Cc1c(C2CC2)nc2ccc(-n3ccc(OCc4ccc(Cl)cc4)nc3=O)cn12` have?
0.14

* * *

Listed next: entries and their corresponding pIC50.
molecular target: Melanin-concentrating hormone receptor 1 (Homo sapiens, UniProt Q99705); assay: Displacement of [125I]-MCH (4 to19 residues) from human MCHR1 expressed in CHO cell membranes after 1 hr by liquid scintillation counting analysis
Sequence (Q99705 whole entry, the tested form may be a part): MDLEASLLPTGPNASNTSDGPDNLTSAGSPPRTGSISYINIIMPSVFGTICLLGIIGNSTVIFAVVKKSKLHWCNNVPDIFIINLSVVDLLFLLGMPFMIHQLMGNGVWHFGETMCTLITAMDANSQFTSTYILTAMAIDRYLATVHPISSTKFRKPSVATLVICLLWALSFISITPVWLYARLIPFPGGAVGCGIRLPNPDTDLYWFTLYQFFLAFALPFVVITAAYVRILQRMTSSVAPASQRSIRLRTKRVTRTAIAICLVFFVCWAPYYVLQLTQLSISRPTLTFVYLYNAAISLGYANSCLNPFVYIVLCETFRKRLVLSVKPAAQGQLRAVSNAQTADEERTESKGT
Units for pIC50: none; it is -log10 of a concentration expressed in mol/L.

// known answers, use as guide
{"molecule": "Cc1c(C2CC2)nc2ccc(NC(=O)COc3ccc(OC(F)(F)F)cc3)cn12", "testedSystem": "Melanin-concentrating hormone receptor 1 (Homo sapiens, UniProt Q99705)", "pIC50": 8.52}
{"molecule": "Cc1c(C2CC2)nc2ccc(-n3ccc(OCc4cccs4)cc3=O)cn12", "testedSystem": "Melanin-concentrating hormone receptor 1 (Homo sapiens, UniProt Q99705)", "pIC50": 7.02}
{"molecule": "Cc1c(C2CC2)nc2ccc(-n3ccc(OCc4ccc(F)cc4)cc3=O)cn12", "testedSystem": "Melanin-concentrating hormone receptor 1 (Homo sapiens, UniProt Q99705)", "pIC50": 7.33}
{"molecule": "Cc1nc2ccc(-n3ccc(OCc4ccccc4)cc3=O)cn2c1C", "testedSystem": "Melanin-concentrating hormone receptor 1 (Homo sapiens, UniProt Q99705)", "pIC50": 7.11}
{"molecule": "Cc1c(C2CC2)nc2ccc(-n3ccc(OCc4ccsc4)cc3=O)cn12", "testedSystem": "Melanin-concentrating hormone receptor 1 (Homo sapiens, UniProt Q99705)", "pIC50": 7.60}
{"molecule": "Cc1c(C2CC2)nc2ccc(-n3ccc(OCc4ccc(Cl)cc4)cc3=O)cn12", "testedSystem": "Melanin-concentrating hormone receptor 1 (Homo sapiens, UniProt Q99705)", "pIC50": 7.59}
{"molecule": "Cc1c(C2CC2)nc2ccc(-n3ccc(OCc4ccc(Cl)cn4)cc3=O)cn12", "testedSystem": "Melanin-concentrating hormone receptor 1 (Homo sapiens, UniProt Q99705)", "pIC50": 7.62}
{"molecule": "Cc1c(C2CC2)nc2ccc(-n3ccc4oc(-c5ccc(Cl)cc5)cc4c3=O)cn12", "testedSystem": "Melanin-concentrating hormone receptor 1 (Homo sapiens, UniProt Q99705)", "pIC50": 8.17}
{"molecule": "Cc1c(C2CC2)nc2ccc(-n3ccc(OCc4ccccc4)cc3=O)cn12", "testedSystem": "Melanin-concentrating hormone receptor 1 (Homo sapiens, UniProt Q99705)", "pIC50": 7.38}
{"molecule": "Cc1c(C2CC2)nc2ccc(-n3ccc(OCc4csc(Cl)c4)cc3=O)cn12", "testedSystem": "Melanin-concentrating hormone receptor 1 (Homo sapiens, UniProt Q99705)", "pIC50": 8.11}

What does the data say about its pIC50? Entry: `Cc1c(C2CC2)nc2ccc(-n3ccc(OCc4ccc(Cl)cc4)nc3=O)cn12`
7.43

What does the data say about its pIC50? Entry: `Cc1c(C2CC2)nc2ccc(-n3ccc(OCc4csc(C(F)(F)F)c4)cc3=O)cn12`
7.77

What does the data say about its pIC50? Entry: `Cc1c(C2CC2)nc2ccc(-n3ccc(OCc4ccc(Br)cc4)cc3=O)cn12`
7.92

What does the data say about its pIC50? Entry: Cc1c(C2CC2)nc2ccc(-n3ccc4c(c3=O)CCC(c3ccc(Cl)cc3)O4)cn12 (configuration not stated)
7.03

What does the data say about its pIC50? Entry: `Cc1c(C2CC2)nc2ccc(-n3ncc(OCc4ccc(Cl)cc4)cc3=O)cn12`
7.04

* * *

assay: Plasma concentration in diet-induced obese F344/jcl rat at 3 mg/kg, po administered on day 1 measured 24 hrs post dose; format: ADME, organism-based
metricName: concentration at 24 h (ng/mL)
Record the value in ng/mL, omitting the unit from your answer.

What does the data say about its concentration at 24 h? Entry: `Cc1c(C2CC2)nc2ccc(-n3ccc(OCc4ccc(Cl)cc4)cc3=O)cn12`
351

* * *

experiment: Total clearance in Sprague-Dawley rat at 0.1 mg/kg, iv administered through cassette dosing by LC/MS/MS analysis; type: ADME, organism-based; details: in vivo
metricName: clearance (mL/min/kg)
Record the value in mL/min/kg, omitting the unit from your answer.

What does the data say about its clearance? Entry: `Cc1c(C2CC2)nc2ccc(-n3ccc(OCc4ccc(Cl)cc4)cc3=O)cn12`
5.2

* * *

target: UniProt P97639; assay: Displacement of [125I]-MCH (4 to 19 residues) from rat MCHR1 expressed in CHO cell membranes after 1 hr by liquid scintillation counting analysis
Sequence (P97639 whole entry, the tested form may be a part): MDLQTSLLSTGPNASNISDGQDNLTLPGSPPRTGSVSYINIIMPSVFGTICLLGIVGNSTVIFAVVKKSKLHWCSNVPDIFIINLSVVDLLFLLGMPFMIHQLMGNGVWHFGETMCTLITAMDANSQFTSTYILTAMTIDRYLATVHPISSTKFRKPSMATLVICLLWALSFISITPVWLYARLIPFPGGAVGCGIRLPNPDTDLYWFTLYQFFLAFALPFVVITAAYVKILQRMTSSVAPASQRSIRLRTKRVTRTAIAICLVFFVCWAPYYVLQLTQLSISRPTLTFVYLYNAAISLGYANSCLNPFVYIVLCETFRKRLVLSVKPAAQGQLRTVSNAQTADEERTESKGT
Listed next: entries and their corresponding IC50.

{"compound": "Cc1c(C(=O)C2CC2)nc2ccc(-n3ccc(OCc4ccc(F)cc4)cc3=O)cn12", "IC50": "> 1000 nM"}

What does the data say about its IC50? Entry: `Cc1c(C2CC2)nc2ccc(-n3ccc(OCc4ccsc4)cc3=O)cn12`
54 nM

What does the data say about its IC50? Entry: `Cc1nc2ccc(-n3ccc(OCc4ccccc4)cc3=O)cn2c1C`
80 nM

What does the data say about its IC50? Entry: `Cc1c(C2CC2)nc2ccc(-n3ccc(OCc4ccc(Br)cc4)cc3=O)cn12`
9.3 nM

What does the data say about its IC50? Entry: `Cc1c(C2CC2)nc2ccc(-n3ccc(OCc4ccc(C(C)C)cc4)cc3=O)cn12`
240 nM

What does the data say about its IC50? Entry: `Cc1c(C2CC2)nc2ccc(-n3ccc4oc(-c5ccc(Cl)cc5)cc4c3=O)cn12`
11 nM

What does the data say about its IC50? Entry: `Cc1nc2ccc(NC(=O)COc3ccc(OC(F)(F)F)cc3)cn2c1C`
7.8 nM

* * *

assay: Volume of distribution at steady state in Sprague-Dawley rat at 0.1 mg/kg, iv by LC/MS/MS analysis; assay type: ADME, organism-based; conditions: in vivo, read-out: Vdss
metricName: Vd (L/kg)
Record the value in L/kg, omitting the unit from your answer.

What does the data say about its Vd? Entry: `Cc1c(C2CC2)nc2ccc(-n3ccc(OCc4ccc(Cl)cc4)cc3=O)cn12`
1.05

* * *

Listed next: entries and their corresponding logD.
assay: Lipophilicity, log D of the compound at pH 7.4; type: physicochemical; conditions: buffer
Answer with a number only.

{"chemicalSmiles": "Cc1c(C2CC2)nc2ccc(-n3ccc(OCc4ccc(Cl)cc4)nc3=O)cn12", "logD": 2.8}
{"chemicalSmiles": "Cc1c(C2CC2)nc2ccc(-n3ncc(OCc4ccc(Cl)cc4)cc3=O)cn12", "logD": 3.7}
{"chemicalSmiles": "Cc1c(C2CC2)nc2ccc(-n3cnc(OCc4ccc(Cl)cc4)cc3=O)cn12", "logD": 2.9}

Moving on to the next molecule.
What does the data say about its logD? Entry: `Cc1c(C2CC2)nc2ccc(-n3ccc(OCc4ccc(Cl)cc4)cc3=O)cn12`
3.2

* * *

assay: Drug uptake in diet-induced obese F344/jcl rat brain at 3 mg/kg, po administered on day 1 measured 24 hrs post dose; format: ADME, organism-based; details: read-out: Drug uptake
metricName: concentration at 24 h (ng/g)
Record the value in ng/g, omitting the unit from your answer.

What does the data say about its concentration at 24 h? Entry: `Cc1c(C2CC2)nc2ccc(-n3ccc(OCc4ccc(Cl)cc4)cc3=O)cn12`
218
